protocol-notes: Human HepG2 cell viability assay in 384 well format
Format: toxicity, cell-based
Set-up: dose 125 nL, time 70.5 hour; concentration not given beside the values
condition-description: HepG2 cells, read-out: Inhibition
The label Criterion met is reserved for cytotoxicity at 70.5 h strictly under -20%; Criterion not met covers values equal to or above it.

> print(dat)
                                 compound         class.name
1  O=C(NCCNc1ncccn1)N(Cc1ccc(F)cc1F)C1CC1  Criterion not met

// query Consider Nc1nccc(C2CCN(CCO)C2)n1 (stereo unspecified) . Does its cytotoxicity at 70.5 h lie strictly below -20%?
// result Criterion met

// query Consider C=C(C)CNC(=O)C1CCC(=O)N(C2CCCC2)C1 (stereo unspecified) . Does its cytotoxicity at 70.5 h lie strictly below -20%?
// result Criterion not met

Data provenance is ChEMBL document CHEMBL3507680.
